- System: PPARg:RXRa (NR concentration 180 nM, RXRa partner concentration 90 nM)
- ASSAY INFO: PBM binding z-score (relative to random genomic background probes); higher = stronger binding; sequences stand for … in GC…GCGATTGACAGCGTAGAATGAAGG
Could you please report measured PBM binding z-score for the items listed next?
# output: bare number, no unit

Incoming: Form: Entry = `TGTCAAAGTTCAGAGGTAACGTAAGTATCCACAC` | System = PPARg:RXRa (NR concentration 180 nM, RXRa partner concentration 90 nM) | PBM binding z-score = ____
Outgoing: 6.27

Incoming: Give PPARg:RXRa (NR concentration 180 nM, RXRa partner concentration 90 nM) PBM binding z-score for `TCTATCAGGCCAGAGGGTCACTCAAGAGGTACGG`
Outgoing: 1.7

Incoming: Item `CCTACTGGGCCACGAAAGGTCATTCATTCAGTGA` with PPARg:RXRa (NR concentration 180 nM, RXRa partner concentration 90 nM) - PBM binding z-score?
Outgoing: 4.8

Incoming: Give PPARg:RXRa (NR concentration 180 nM, RXRa partner concentration 90 nM) PBM binding z-score for `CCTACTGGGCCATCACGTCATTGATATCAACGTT`
Outgoing: 0.963

Incoming: Checklist item: PBM binding z-score tested on PPARg:RXRa (NR concentration 180 nM, RXRa partner concentration 90 nM), entry `CCAGACAGGTGAAATGTAACTCAGTCTGGTACGC` , value?
Outgoing: 1.12

Incoming: // lookup PBM binding z-score | system=PPARg:RXRa (NR concentration 180 nM, RXRa partner concentration 90 nM) | key= `CCTAGCAGGCTAGGGTCACTCAAGCATTTCGCTT`
Outgoing: 0.643

Incoming: For PPARg:RXRa (NR concentration 180 nM, RXRa partner concentration 90 nM), provide PBM binding z-score of `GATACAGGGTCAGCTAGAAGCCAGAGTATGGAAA` please.
Outgoing: 3.76

Incoming: Find PBM binding z-score (PPARg:RXRa (NR concentration 180 nM, RXRa partner concentration 90 nM)) for the entry `CCAGACAGGTGAAAGGTAAATCAGTCTGGTACGC`
Outgoing: 5.01

Incoming: Could you share what PBM binding z-score was measured for `GCTGCTAGGTCAACTGATGGTCCGCTAAAGCTCG` , tested on PPARg:RXRa (NR concentration 180 nM, RXRa partner concentration 90 nM)?
Outgoing: 2.32

Incoming: Item: `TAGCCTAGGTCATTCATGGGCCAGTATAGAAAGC` Test system: PPARg:RXRa (NR concentration 180 nM, RXRa partner concentration 90 nM) Read-out: PBM binding z-score Value: ?
Outgoing: 2.02

Incoming: Hello, I am looking for reported PBM binding z-score with PPARg:RXRa (NR concentration 180 nM, RXRa partner concentration 90 nM) for `GCTTGTAGATCAAGGTTAAGATAGACTAAGCTAA` . Could you help?
Outgoing: 1.17

Incoming: What is its PBM binding z-score for PPARg:RXRa (NR concentration 180 nM, RXRa partner concentration 90 nM)? Entry: `TCTAGTTGGTCACGGAAGTCACACACGACGGGTA`
Outgoing: 1.27
